# reported EC50; entries follow
- tested_target: F508delCFTR (Homo sapiens, UniProt P13569, DEL508-508)
- Construct: expressed in transfected cells; host or cells: CFBE41o- human lung-derived epithelial cells (CFBE41o-F508delCFTR-HRP), doxycycline-inducible
- Sequence (P13569 with tags, fused parts or gaps DEL508-508): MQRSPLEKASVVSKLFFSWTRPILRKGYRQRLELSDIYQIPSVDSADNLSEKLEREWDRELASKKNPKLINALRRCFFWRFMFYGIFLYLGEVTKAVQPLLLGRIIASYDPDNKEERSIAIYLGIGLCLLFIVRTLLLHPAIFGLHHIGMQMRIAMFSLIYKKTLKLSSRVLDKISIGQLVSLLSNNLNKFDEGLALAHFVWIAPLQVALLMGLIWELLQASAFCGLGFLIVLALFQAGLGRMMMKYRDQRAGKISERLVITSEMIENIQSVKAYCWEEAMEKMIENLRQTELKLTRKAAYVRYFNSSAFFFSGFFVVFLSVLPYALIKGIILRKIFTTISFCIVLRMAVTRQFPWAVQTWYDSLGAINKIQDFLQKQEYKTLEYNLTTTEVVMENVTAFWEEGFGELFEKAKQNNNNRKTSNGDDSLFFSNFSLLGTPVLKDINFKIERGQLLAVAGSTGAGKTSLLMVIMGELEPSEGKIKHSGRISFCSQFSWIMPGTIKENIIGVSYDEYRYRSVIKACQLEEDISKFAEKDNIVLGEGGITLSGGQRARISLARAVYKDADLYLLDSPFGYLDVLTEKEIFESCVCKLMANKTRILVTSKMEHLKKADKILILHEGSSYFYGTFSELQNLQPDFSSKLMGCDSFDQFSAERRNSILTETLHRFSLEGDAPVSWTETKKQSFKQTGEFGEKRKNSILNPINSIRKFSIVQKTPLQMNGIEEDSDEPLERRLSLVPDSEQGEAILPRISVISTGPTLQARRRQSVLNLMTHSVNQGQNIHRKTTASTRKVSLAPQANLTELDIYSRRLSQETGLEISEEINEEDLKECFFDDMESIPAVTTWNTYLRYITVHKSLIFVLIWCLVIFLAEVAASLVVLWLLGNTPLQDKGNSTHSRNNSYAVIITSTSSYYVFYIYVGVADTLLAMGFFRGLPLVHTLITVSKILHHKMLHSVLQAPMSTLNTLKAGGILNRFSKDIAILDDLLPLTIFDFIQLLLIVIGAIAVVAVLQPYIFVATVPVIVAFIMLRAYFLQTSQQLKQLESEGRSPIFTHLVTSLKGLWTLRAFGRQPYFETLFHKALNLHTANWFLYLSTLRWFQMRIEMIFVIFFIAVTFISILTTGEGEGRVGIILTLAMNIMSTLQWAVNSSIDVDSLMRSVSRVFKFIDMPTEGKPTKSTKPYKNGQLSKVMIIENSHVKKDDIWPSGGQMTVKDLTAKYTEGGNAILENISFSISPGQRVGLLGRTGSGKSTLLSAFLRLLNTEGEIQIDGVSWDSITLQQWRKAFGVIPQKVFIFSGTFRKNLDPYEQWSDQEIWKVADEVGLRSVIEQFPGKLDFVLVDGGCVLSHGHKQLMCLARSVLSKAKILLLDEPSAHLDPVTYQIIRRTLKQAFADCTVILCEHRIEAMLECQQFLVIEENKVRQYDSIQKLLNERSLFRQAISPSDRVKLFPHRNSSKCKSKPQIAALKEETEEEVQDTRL
- assay_method_text: Cell Surface Expression-Horse Radish Peroxidase (CSE-HRP) assay, test compound with co-corrector
- Assay type: cell-based
- particulars: with 2 μM co-corrector
- Procedure: Cell Surface Expression-Horse Radish Peroxidase (CSE-HRP) Assay […] The % activity measured at each of the 8 test concentrations of the test compound added either without or with a co-corrector (2 μM of 3-[(2R,4R)-4-({[1-(2,2-difluoro-1,3-benzodioxol-5-yl)cyclopropyl]carbonyl}amino)-7-methoxy-3,4-dihydro-2H-chromen-2-yl]benzoic acid) was normalized to the on-plate positive control using the following formulae: […]
measurement_type: EC50

INSERT INTO assay_data (molecule, test_value) VALUES
  ('O=C(NS(=O)(=O)c1ccc(Cl)cc1)C1CCc2c(Cl)cccc21 (centres unmarked) [II-27]', '3 to 10 µM'),
  ('COc1cccc2c1CC(C(=O)NS(=O)(=O)c1ccccc1C)C2 (centres unmarked) [II-16]', '3 to 10 µM'),
  ('CCC1(C(=O)NS(=O)(=O)c2ccccc2)CCc2c(Cl)cccc21 (centres unmarked) [II-66]', '< 3 µM'),
  ('COc1cccc2c1CCC2C(=O)NS(=O)(=O)c1cccnc1C#N (centres unmarked) [III-83]', '≥ 10 µM'),
  ('COc1ccc(C(F)(F)F)c2c1[C@@H](C(=O)NS(=O)(=O)c1cccc3ncccc13)CC2 [Example I-95]', '< 3 µM'),
  ('CCC1(C(=O)NS(=O)(=O)c2ccccc2Oc2ccccc2)CCc2c(Cl)cccc21 (centres unmarked) [II-59]', '< 3 µM'),
  ('COc1ccc(Br)c2c1C(C(=O)NS(=O)(=O)c1cccc3ccccc13)CC2 (centres unmarked) [Example I-19]', '< 3 µM'),
  ('C[C@@]1(C(=O)NS(=O)(=O)c2cccc3ccccc23)CCc2c1ccc1c2OCO1 [Example I-21]', '3 to 10 µM'),
  ('CC[C@]1(C(=O)NS(=O)(=O)c2cccc3ccccc23)CCc2c(Cl)cccc21 [Example I-17]', '< 3 µM'),
  ('CCOc1ccc2c(S(=O)(=O)NC(=O)C3CCc4c(Br)ccc(OC)c43)cccc2n1 (centres unmarked) [II-123]', '3 to 10 µM'),
  ('COc1ccc(C(F)(F)F)c2c1[C@@H](C(=O)NS(=O)(=O)c1cccc3nc(C)ccc13)CC2 [Example I-117]', '3 to 10 µM'),
  ('CCC1(C(=O)NS(=O)(=O)c2cccc3c(C4CCC4)cccc23)CCc2c(C3CCC3)cccc21 (centres unmarked) [II-83]', '3 to 10 µM'),
  ('COc1cccc2c1CCC2C(=O)NS(=O)(=O)c1nc2c(c(=O)n(C)c(=O)n2C)n1Cc1ccc(Cl)cc1 (centres unmarked) [III-59]', '≥ 10 µM'),
  ('COc1ccc2c(c1)CC[C@]2(C)C(=O)NS(=O)(=O)c1cccc2ccccc12 [II-45]', '3 to 10 µM'),
  ('COc1ccc(C2CCC2)c2c1C(C(=O)NS(=O)(=O)c1cccc3ccccc13)CCC2 (centres unmarked) [Example I-69]', '< 3 µM'),
  ('O=C(NS(=O)(=O)c1cccc2ccccc12)C1CCCc2c(OCc3ccccc3)ccc(Br)c21 (centres unmarked) [II-89]', '3 to 10 µM'),
  ('C[C@@]1(C(=O)NS(=O)(=O)c2cccc3ccccc23)CCc2cccc(Cl)c21 [Example I-27]', '< 3 µM');
